tested on: HCT-15 colon; test: NCI tumour cell line growth inhibition, 48 h
RESULT_TYPE: TGI

-- ask Fill in the blank: the reported TGI of CC1OC(n2cc(F)c(=O)[nH]c2=O)C=CC1O (stereo not drawn) is ____.
-- reply > 100 µM

-- ask Another compound to look at: "Cc1cc2nc3c(C#N)c(-c4ccccc4)cc(Nc4ccc(Cl)cc4)n3c2cc1C"
-- reply > 100 µM

-- ask Another compound to look at: "COc1cc(C[S+]2CCCC2)c(SC)cc1C[S+]1CCCC1"
-- reply > 100 µM

----------
test system: RPMI-8226 leukemia; experiment: NCI tumour cell line growth inhibition, 48 h
RESULT_TYPE: TGI

-- ask Fill in the blank: the reported TGI of "O=[N+]([O-])c1ccc(C=C2C(Cl)=C(Cl)C(Cl)=C2Cl)cc1" is ____.
-- reply 5.16 µM

-- ask Another compound to look at: CCCCCCCCCC/C=C/CC(=O)SCCNC(=O)CCNC(=O)[C@@H](O)C(C)(C)COP(=O)(O)OP(=O)(O)OCC1OC(n2cnc3c(N)ncnc32)C(O)C1OP(=O)(O)O (some centres undefined)
-- reply > 10 µM

-- ask Another compound to look at: "CC[N+](CC)(CCNCC(N)=O)CC(N)=O"
-- reply > 10 µM

-- ask Another compound to look at: "COc1ccc(OC)c(NC(=O)C(=O)NNC(=O)c2sc(NNC(C)=O)nc2C)c1"
-- reply > 100 µM

-- ask Another compound to look at: "N#C/C(C(=O)Nc1ccccc1)=C(/N)N1CCOCC1"
-- reply > 100 µM

-- ask Another compound to look at: "Nc1nc(N)c2[nH]c(CNc3ccc(C(=O)O)cc3)nc2n1"
-- reply > 100 µM

-- ask Another compound to look at: "CC(=O)n1nc(-c2ccccc2)n(/N=C/c2ccc([N+](=O)[O-])cc2)c1=O"
-- reply > 100 µM

-- ask Another compound to look at: C[As](C)SC1OC(CO)C(O)C1O (centres undefined)
-- reply 0.342 µM

-- ask Another compound to look at: "C=C(F)C(=O)N1CCN(c2nc(OC[C@@H]3CCCN3C)nc3c2CCN(c2cccc4cccc(Cl)c24)C3)C[C@@H]1CC#N"
-- reply 3.45 µM

-- ask Another compound to look at: "O=S1(=O)OCCOS(=O)(=O)C1F"
-- reply > 100 µM

-- ask Another compound to look at: "CS(=O)(=O)Nc1ccc(N2Cc3cnc4ccc5[nH]ccc2c5c34)cc1"
-- reply 48.1 µM

-- ask Another compound to look at: "O=C1CCCC/C(=C/c2ccccc2)N1"
-- reply > 100 µM

-- ask Another compound to look at: "Cc1ccc(S(=O)(=O)Oc2cc(-c3ccccc3)nc3ccccc23)cc1"
-- reply 7.71 µM

-- ask Another compound to look at: "O=C(CC(=O)Nc1cccc(C(=O)O)c1)Nc1cccc(C(=O)O)c1"
-- reply > 100 µM

----------
test system: MDA-N; assay: NCI tumour cell line growth inhibition, 48 h
Hi there, I'd appreciate the recorded TGI for every entry that follows.

-- ask What TGI appears in the records for this compound with MDA-N? "C[C@@H]1C[C@H]2[C@@H]3CCC4=CC(=O)C=C[C@]4(C)[C@@]3(Cl)[C@@H](Cl)C[C@]2(C)[C@@]1(O)C(=O)COP(=O)(O)O"
-- reply > 100 µM

-- ask Another compound to look at: CC1(CCCO)CCCCCC(C)(CCCO)C1=O (stereo not drawn)
-- reply > 100 µM

-- ask Another compound to look at: "O=[N+]([O-])c1ccc(Cl)c(C=NC23CC4CC(CC(C4)C2)C3)c1"
-- reply > 10 µM
